From: DBAASP

So I've got a bunch of compounds here, and I need their MIC values.

API: value(readout=MIC, system=Salmonella enterica subsp. enterica serovar Typhimurium ATCC 14028) for record CC[C@H](C)[C@H](NC(=O)CNC(=O)[C@@H](NC(=O)[C@@H](N)CC(C)C)[C@@H](C)CC)C(=O)N[C@H](C(=O)N[C@@H](CC(=O)O)C(=O)NCC(=O)N[C@H](C(=O)N[C@@H](CCCCN)C(=O)N[C@@H](CCC(=O)O)C(=O)N[C@@H](CCCN=C(N)N)C(=O)N[C@@H](CCCCN)C(=O)N[C@@H](CCCCN)C(=O)N[C@@H](CCCN=C(N)N)C(=O)N[C@@H](CCCN=C(N)N)C(=O)N[C@@H](CCCN=C(N)N)C(N)=O)C(C)C)[C@@H](C)CC [LIGIIDGVKERKKRRR]
> 64 µM

API: value(readout=MIC, system=Salmonella enterica subsp. enterica serovar Typhimurium ATCC 14028) for record CC[C@H](C)[C@H](NC(=O)[C@@H](N)CCC(=O)O)C(=O)N[C@@H](CC(C)C)C(=O)N[C@@H](CO)C(=O)N[C@@H](CCCCN)C(=O)N[C@@H](C)C(=O)N[C@@H](CC(C)C)C(=O)N[C@@H](CO)C(=O)N[C@@H](C)C(=O)N[C@@H](CC(C)C)C(=O)N[C@@H](CO)C(=O)N1CCC[C@H]1C(=O)N[C@@H](CC(C)C)C(=O)N[C@@H](C)C(=O)N[C@@H](CC(N)=O)C(=O)O [EILSKALSALSPLAN]
> 83.8 µM

API: value(readout=MIC, system=Salmonella enterica subsp. enterica serovar Typhimurium ATCC 14028) for record CC(C)C[C@H](NC(=O)[C@H](CC(C)C)NC(=O)[C@H](Cc1c[nH]c2ccccc12)NC(=O)[C@H](Cc1c[nH]c2ccccc12)NC(=O)[C@H](Cc1c[nH]c2ccccc12)NC(=O)[C@H](CCCN=C(N)N)NC(=O)[C@H](CS)NC(=O)[C@H](Cc1ccccc1)NC(=O)[C@H](Cc1ccc(O)cc1)NC(=O)[C@H](CO)NC(=O)[C@H](C)NC(=O)[C@@H](N)CS)C(N)=O [CASYFCRWWWLL]
> 64 µM

API: value(readout=MIC, system=Salmonella enterica subsp. enterica serovar Typhimurium ATCC 14028) for record CC[C@H](C)[C@H](NC(=O)CNC(=O)[C@H](CCCCN)NC(=O)[C@H](C)NC(=O)[C@H](C)NC(=O)[C@H](CCCCN)NC(=O)[C@H](Cc1cnc[nH]1)NC(=O)[C@@H](NC(=O)[C@H](C)NC(=O)[C@H](CCCCN)NC(=O)[C@H](Cc1c[nH]c2ccccc12)NC(=O)CN)[C@@H](C)CC)C(=O)N[C@@H](Cc1cnc[nH]1)C(=O)N[C@H](C(=O)N[C@@H](Cc1ccc(O)cc1)C(=O)N[C@H](C(=O)N[C@@H](CC(N)=O)C(=O)O)C(C)C)[C@@H](C)O [GWKAIHKAAKGIHTYVN]
> 67.6 µM
